Values compiled from paper PMC9453727.

# protocolDescription: in vitro
# measurementParameters: PAMPA, pH 5, Papp PAMPA-GIT, pH 5.0

# molecule, Papp / ×10⁻⁶ cm/s
rows = [
    ("NC(=O)N1c2ccccc2C=Cc2ccccc21 [Carbamazepine]", 135),
]

###

# protocolDescription: in vitro
# measurementParameters: PAMPA, pH 6.2, Papp PAMPA-GIT, pH 6.2

# compound, resultUnit, Papp
rows = [
    ("NC(=O)N1c2ccccc2C=Cc2ccccc21 [Carbamazepine]", "×10⁻⁶ cm/s", 158),
]
